Origin of values: the supplement of paper PMC10567573

B1: STEAP1 (parent)
chain: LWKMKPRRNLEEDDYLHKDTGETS

variants of: B1; assay: protein stability index of a GFP-peptide fusion (GPS, HEK-293T) (PSI 1-6); higher = more stable; details: c terminus: a fixed tail appended;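 note: lentivirally expressed fusions sorted by FACS into six bins by GFP to DsRed ratio, PSI derived from sequencing read proportions per bin multiplied by bin number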
propertyLabel: protein stability index
Enter the number alone.

Looking for the measured protein stability index of R7C , can you help?
4.26

Looking for the measured protein stability index of L10S , can you help?
5.12

Looking for the measured protein stability index of L16S , can you help?
4.6

Looking for the measured protein stability index of H17W , can you help?
3.84

Looking for the measured protein stability index of D19N , can you help?
4.39

Looking for the measured protein stability index of P6N , can you help?
4.52

Looking for the measured protein stability index of N9M , can you help?
4.36

Looking for the measured protein stability index of P6W , can you help?
3.16

Looking for the measured protein stability index of T23Y , can you help?
4.02

Looking for the measured protein stability index of T23P , can you help?
4.92

Looking for the measured protein stability index of T23R , can you help?
4.48

Looking for the measured protein stability index of K18G , can you help?
4.73

Looking for the measured protein stability index of S24C , can you help?
3.89

Looking for the measured protein stability index of R8D , can you help?
4.74

Looking for the measured protein stability index of M4F , can you help?
3.99

Looking for the measured protein stability index of S24W , can you help?
3.5

Looking for the measured protein stability index of W2P , can you help?
5.49

Looking for the measured protein stability index of T20L , can you help?
4.13

Looking for the measured protein stability index of W2D , can you help?
5.62

Looking for the measured protein stability index of L1A , can you help?
5.06

Looking for the measured protein stability index of G21Q , can you help?
4.33

Looking for the measured protein stability index of L1F , can you help?
4.31

Looking for the measured protein stability index of Y15R , can you help?
4.53

Looking for the measured protein stability index of K18V , can you help?
4.21

Looking for the measured protein stability index of T23F , can you help?
3.92

Looking for the measured protein stability index of L10I , can you help?
4.67

Looking for the measured protein stability index of L16K , can you help?
4.59

Looking for the measured protein stability index of E11K , can you help?
4.58

Looking for the measured protein stability index of R7Q , can you help?
4.62

Looking for the measured protein stability index of E11G , can you help?
3.93

Looking for the measured protein stability index of L1P , can you help?
5.08

Looking for the measured protein stability index of M4E , can you help?
4.94

Looking for the measured protein stability index of E12G , can you help?
4.16

Looking for the measured protein stability index of T23K , can you help?
4.73

Looking for the measured protein stability index of K18R , can you help?
4.75

Looking for the measured protein stability index of N9H , can you help?
4.47
